- System: SK-MEL-2
- measurement-notes: NCI tumour cell line growth inhibition, 48 h
The source made the active and inactive calls. Rule as the data show it: active = GI50 up to about 1.1 µM and inactive = higher. Where a SMILES comes first, the peptide text is derived from it. Bridges are numbered along the chain shown (N, C = ends). [ ]: non-standard residue; d: D form. The star is where a group is joined. ξ: configuration not given here. PhAc = O=C(Cc1ccccc1)*; ξP = O=C(O)C1CCCN1
Hi! Could you answer with just one of these? True for active, False for inactive

Problem: I would be grateful if you could indicate the recorded call for CC1(O)CC23CC(O)C4(O)C(CC(O)C4(C)C)C(C)(O)C2CCC1C3O (centres undefined) .
Solution: False

Problem: Next entry: Cn1c(=O)c2sc3cc4c(cc3c2c2ccccc21)sc1c(=O)n(C)c2ccccc2c14
Solution: False

Problem: Next entry: CC(=O)O[C@@H]1[C@H](C(C)C)[C@@H](OC(C)=O)C/C(C)=C/CC[C@]2(C)O[C@@H]12
Solution: False

Problem: Next entry: Clc1ccc2c(NCCNC3CCCCC3)ccnc2c1
Solution: False

Problem: Next entry: CCOC(=O)Oc1ccc2[nH]c3c(C)cc(N)c(C)c3c2c1
Solution: False

Problem: Next entry: CCNCC(=O)O[C@]1(CC)C(=O)OCc2c1cc1n(c2=O)Cc2cc3ccccc3nc2-1
Solution: False

Problem: Next entry: C[C@H]1OC(=O)[C@@H]2N=NN(Cc3ccccc3)[C@H]12
Solution: False

Problem: Next entry: C/C=C/[C@H]1O[C@@](O)([C@@H](C)[C@H](O)[C@H](C)[C@H]2OC(=O)/C(OC)=C/C(C)=C/[C@@H](C)[C@@H](O)[C@@H](CC)[C@@H](O)[C@H](C)C/C(C)=C/C=C/[C@@H]2OC)C[C@H](OC2CC(O)C(OC(N)=O)C(C)O2)[C@@H]1C (some centres undefined)
Solution: True

Problem: Next entry: CCCCOCn1c(=O)[nH]c(=O)c2cc(Br)ccc21
Solution: False

Problem: Next entry: O=C(Cc1ccccc1)N[C@@H]1COC(=O)C2CCCN2C(=O)[C@@H]2CCCN2C1=O (some centres undefined) (PhAc-[dS]-Pro-[ξP]; ester 1-C)
Solution: False

Problem: Next entry: NC1=CN2c3ccccc3N(CC(=O)O)C2C=C1 (centres undefined)
Solution: False

Problem: Next entry: Cc1ccc2c3c1O[C@H]1c4nc5ccccc5cc4C[C@@]4(O)[C@@H](C2)N(CC2CC2)CC[C@]314
Solution: False

Problem: Next entry: Cc1ccc2c(sc(-c3ccc4c(c3)sc(-c3ccc(N(C)C)cc3)[n+]4C)[n+]2C)c1S(=O)(=O)O.Cc1ccc2c(sc(-c3ccc4c(c3)sc(-c3ccc5c(c3)sc(-c3ccc(N(C)C)cc3)[n+]5C)[n+]4C)[n+]2C)c1S(=O)(=O)O
Solution: False
